Test system: Acinetobacter calcoaceticus No. 4
Experiment: minimum inhibitory concentration, agar plate dilution method
Type: cell-based
Settings: A. calcoaceticus No. 4, inoculated amount of cells 10^6 CFU/ml, Muller-Hinton agar, read-out: minimum inhibitory concentration (M.I.C.)
Item-by-item account of MIC
readout: MIC (µg/mL)

{"columns": ["compound", "system", "result"],
 "data": [
  ["NC(=O)c1cc[n+](CC2=C(C(=O)O)N3C(=O)[C@@H](NC(=O)[C@@H](c4ccccc4)S(=O)(=O)[O-])[C@H]3SC2)cc1 [CFS, cefsulodin, reference compound]", "Acinetobacter calcoaceticus No. 4", 50],
  ["Cn1nnnc1SCC1=C(C(=O)O)N2C(=O)[C@@H](NC(=O)/C(=N\\OCc3cc(=O)c(O)cn3O)c3csc(N)n3)[C@H]2SC1 [Example 5]", "Acinetobacter calcoaceticus No. 4", 1.56],
  ["CO/N=C(\\C(=O)N[C@@H]1C(=O)N2C(C(=O)O)=C(COC(C)=O)CS[C@H]12)c1csc(N)n1 [CTX, cefotaxime, reference compound]", "Acinetobacter calcoaceticus No. 4", 25],
  ["Cc1cc(SCC2=C(C(=O)O)N3C(=O)[C@@H](NC(=O)/C(=N\\OCc4cc(=O)c(O)cn4O)c4csc(N)n4)[C@H]3SC2)n2nc(C(=O)O)nc2n1 [Example 4]", "Acinetobacter calcoaceticus No. 4", 12.5],
  ["C[n+]1ccc(SCC2=C(C(=O)[O-])N3C(=O)[C@@H](NC(=O)/C(=N\\OCc4cc(=O)c(O)cn4O)c4csc(N)n4)[C@H]3SC2)c2c1CCC2 [Example 19]", "Acinetobacter calcoaceticus No. 4", 6.25],
  ["C[n+]1ccc(SCC2=C(C(=O)[O-])N3C(=O)[C@@H](NC(=O)/C(=N\\OCc4cc(=O)c(O)cn4O)c4csc(N)n4)[C@H]3SC2)cc1 [Example 18]", "Acinetobacter calcoaceticus No. 4", 3.13],
  ["Nc1nc(/C(=N/OCc2cc(=O)c(O)cn2O)C(=O)N[C@@H]2C(=O)N3C(C(=O)O)=C(CSc4nnnn4CCO)CS[C@H]23)cs1 [Example 6]", "Acinetobacter calcoaceticus No. 4", 3.13]
]}

---

Test system: Proteus vulgaris No. 33
Assay: minimum inhibitory concentration, agar plate dilution method
Type: cell-based
Settings: P. vulgaris No. 33, inoculated amount of cells 10^6 CFU/ml, Muller-Hinton agar, read-out: minimum inhibitory concentration (M.I.C.)
Item-by-item account of MIC

{"columns": ["molecule", "qualifier", "MIC / µg/mL"],
 "data": [
  ["C[n+]1ccc(SCC2=C(C(=O)[O-])N3C(=O)[C@@H](NC(=O)/C(=N\\OCc4cc(=O)c(O)cn4O)c4csc(N)n4)[C@H]3SC2)c2c1CCC2", "=", 0.2],
  ["Cn1nnnc1SCC1=C(C(=O)O)N2C(=O)[C@@H](NC(=O)/C(=N\\OCc3cc(=O)c(O)cn3O)c3csc(N)n3)[C@H]2SC1", "≤", 0.025],
  ["C[n+]1ccc(SCC2=C(C(=O)[O-])N3C(=O)[C@@H](NC(=O)/C(=N\\OCc4cc(=O)c(O)cn4O)c4csc(N)n4)[C@H]3SC2)cc1", "=", 0.1],
  ["CO/N=C(\\C(=O)N[C@@H]1C(=O)N2C(C(=O)O)=C(COC(C)=O)CS[C@H]12)c1csc(N)n1 [CTX, cefotaxime, reference compound]", "=", 0.05],
  ["Cc1cc(SCC2=C(C(=O)O)N3C(=O)[C@@H](NC(=O)/C(=N\\OCc4cc(=O)c(O)cn4O)c4csc(N)n4)[C@H]3SC2)n2nc(C(=O)O)nc2n1", "=", 0.1],
  ["Nc1nc(/C(=N/OCc2cc(=O)c(O)cn2O)C(=O)N[C@@H]2C(=O)N3C(C(=O)O)=C(CSc4nnnn4CCO)CS[C@H]23)cs1", "=", 0.05]
]}

Data origin, for the record: patent US4822786A
